assay: Inhibition of recombinant Mycobacterium tuberculosis glutamine-dependent NadE using NAAD as substrate assessed as residual activity preincubated for 20 mins followed L-glutamine addition measured over 40 mins by spectrophotometric based PNP enzyme coupled assay
pIC50: −log10 of the molar value.

{"columns": ["smiles input", "pIC50"],
 "data": [
  ["O=C(Nc1ccc([N+](=O)[O-])cc1)Nc1ccc(S(=O)(=O)Nc2cccc([N+](=O)[O-])c2)cc1", 3.77],
  ["O=C(Nc1ccc([N+](=O)[O-])cc1)Nc1ccc(S(=O)(=O)Nc2ccc(F)cc2)cc1", 3.77],
  ["COc1ccc(NS(=O)(=O)c2ccc(NC(=O)Nc3ccc([N+](=O)[O-])cc3)cc2)cc1", 3.89],
  ["O=C(Nc1ccc([N+](=O)[O-])cc1)Nc1ccc(S(=O)(=O)Nc2ccc(I)cc2)cc1", 3.43],
  ["O=C(Nc1ccc([N+](=O)[O-])cc1)Nc1ccc(S(=O)(=O)Nc2ccc([N+](=O)[O-])c(C(F)(F)F)c2)cc1", 3.72],
  ["O=C(Nc1ccc([N+](=O)[O-])cc1)Nc1ccc(S(=O)(=O)Nc2ccc(Cl)c(Cl)c2)cc1", 3.00],
  ["N#Cc1ccc(NS(=O)(=O)c2ccc(NC(=O)Nc3ccc([N+](=O)[O-])cc3)cc2)cc1", 3.72],
  ["O=C(Nc1ccc([N+](=O)[O-])cc1)Nc1ccc(S(=O)(=O)Nc2ccc(Cl)cc2)cc1", 3.28]
]}

The reported measurements were obtained from ChEMBL document CHEMBL4043189.
